- subject_of_test: MAP4K1 (HPK1) (Homo sapiens (Human), UniProt Q92918)
- Sequence (Q92918 whole entry): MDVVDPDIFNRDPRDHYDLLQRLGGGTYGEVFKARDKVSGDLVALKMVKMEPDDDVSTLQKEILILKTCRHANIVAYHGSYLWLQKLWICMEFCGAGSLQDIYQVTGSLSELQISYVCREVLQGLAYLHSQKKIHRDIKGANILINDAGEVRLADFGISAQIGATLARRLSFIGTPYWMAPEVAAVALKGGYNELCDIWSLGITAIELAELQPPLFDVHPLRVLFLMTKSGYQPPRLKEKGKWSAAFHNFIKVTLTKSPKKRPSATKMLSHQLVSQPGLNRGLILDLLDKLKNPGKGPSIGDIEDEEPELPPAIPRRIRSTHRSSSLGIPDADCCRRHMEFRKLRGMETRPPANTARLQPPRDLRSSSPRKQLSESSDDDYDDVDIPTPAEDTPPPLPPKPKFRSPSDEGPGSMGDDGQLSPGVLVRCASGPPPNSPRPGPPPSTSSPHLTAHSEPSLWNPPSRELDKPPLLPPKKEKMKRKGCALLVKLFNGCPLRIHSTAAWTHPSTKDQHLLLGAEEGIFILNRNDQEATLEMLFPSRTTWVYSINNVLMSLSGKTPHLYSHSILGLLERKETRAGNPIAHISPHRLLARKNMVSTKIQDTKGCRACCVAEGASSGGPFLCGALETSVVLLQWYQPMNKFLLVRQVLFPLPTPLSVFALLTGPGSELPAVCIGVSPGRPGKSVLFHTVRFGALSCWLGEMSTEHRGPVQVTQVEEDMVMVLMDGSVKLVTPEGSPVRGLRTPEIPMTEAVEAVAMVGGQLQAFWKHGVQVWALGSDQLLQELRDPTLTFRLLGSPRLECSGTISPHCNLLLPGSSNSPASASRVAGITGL
- test_summary: MAP4K1 (HPK1) biochemical enzymatic activity, electrophoretic mobility shift (EZReader 2), ATP at APPKM (26 μM)
- details: numeric value
pIC50: −log10 of the molar value.
endpoint: pIC50

CC[C@H]1c2nc(Nc3cc4c(C(C)(C)N)cnc(OC5CC5)c4cn3)ccc2C(=O)O[C@H]1C [Compound 138] | 9.57

[a] COc1ncc(C(C)(C)N)c2cc(Nc3ccc4c(n3)[C@@H](C)COC4=O)ncc12 (single isomer, unassigned) [Compound 22]
[b] COc1ncc([C@H](C)N)c2cc(Nc3ccnc(C(C)(C)F)n3)ncc12 (stereo in doubt)
[c] COc1ncc(C(C)(C)N)c2cc(Nc3ccnc(N4CCC[C@@H]4C)n3)ncc12
Would you mind ranking these molecules by ascending pIC50? Write the labels in rank order as requested.
b, a, c

[1] CC[C@H](C)c1nc(Nc2cc3c(C(C)(C)N)cnc(OC)c3cn2)ccc1C#N
[2] CCOc1ncc(C(C)(C)N)c2cc(Nc3ccc4c(n3)[C@H](C)COC4=O)ncc12 (single isomer, unassigned)
Larger number for pIC50: 1 , or 2 ? When you have decided, please share the label of that item.
1

[I] CC[C@@H](C)c1nc(Nc2cc3c(C(C)(C)N)cnc(OC)c3cn2)ccc1C#N
[II] C[C@@H]1OC(=O)c2ccc(Nc3cc4c(C(C)(N)CO)cnc(OC5CC5)c4cn3)nc2[C@H]1C (single isomer, unassigned)
[III] COc1ccc(C(C)(C)N)c2cc(Nc3ccc4c(n3)CC(C)(C)OC4=O)ncc12
[IV] CCOc1ncc(C(C)(C)N)c2cc(Nc3ccc4c(n3)[C@H](C)[C@H](C)OC4=O)ncc12 (single isomer, unassigned)
Parameters: sort_field (pIC50), sort_dir (desc). // ordering of labels required in reply
III, IV, I, II

[P] C[C@@H]1c2nc(Nc3cc4c(C(C)(C)N)cnc(NC5CC5)c4cn3)ccc2C(=O)OC1(C)C
[Q] CC[C@@](C)(N)c1cnc(OC2(C)CC2)c2cnc(Nc3ccc4c(n3)[C@@H](C)[C@H](C)OC4=O)cc12
P or Q : whose pIC50 is greater? Record your answer as the label of the chosen record.
P
